conditions: male, Sprague-Dawley, rat, plasma, other: intranasal, 10 mg/kg, Mean plasma concentration of THC, Intranasal (10 mg/kg), propylene glycol, n = 3, rat, time 30 minutes
measurement name: concentration at 30 minutes
Respond with a number, then the unit of measure.

Task: I have this compound here, CCCCCc1cc(O)c2c(c1)OC(C)(C)[C@@H]1CCC(C)=C[C@@H]21 [THC, delta-9-tetrahydrocannabinol] , and I need its recorded concentration at 30 minutes.
Result: 13 ng/mL

====

details: male, Sprague-Dawley, rat, plasma, iv, 1 mg/kg, Mean plasma concentration of THC, Intravenous (1 mg/kg), propylene glycol, n = 3, rat, time 160 minutes
measurement name: concentration at 160 minutes (ng/mL)
Dear colleague, please return just the value in ng/mL, with no unit written.

Task: I have this molecule here, CCCCCc1cc(O)c2c(c1)OC(C)(C)[C@@H]1CCC(C)=C[C@@H]21 [THC, delta-9-tetrahydrocannabinol] , and I need its recorded concentration at 160 minutes.
Result: 23

The measured values listed here are drawn from patent US20070060639A1.
